# assayProcedure: Briggs-Rauscher Oscillation Reaction Method (BROM) antioxidant capacity
# Type: biochemical
# conditionDetails: Table 3, solvent Water
reportedEndpoint: Result [s/μg] (BROM by Strength) (s/µg)
Write it as a number; the unit s/µg goes unstated.

compound: O=C[C@H](O)[C@@H](O)[C@H](O)[C@H](O)CO [D-Glucose]
unitOfMeasure: s/µg
readoutNumber: 0

compound: Oc1ccc(O)cc1 [Hydroquinone]
unitOfMeasure: s/µg
readoutNumber: 1.31

compound: O=C1O[C@H]([C@@H](O)CO)C(O)=C1O [Ascorbic Acid, Ascorbic acid]
unitOfMeasure: s/µg
readoutNumber: 0.00105

compound: N[C@@H](CCC(=O)N[C@@H](CS)C(=O)NCC(=O)O)C(=O)O [Glutathione]
unitOfMeasure: s/µg
readoutNumber: 0.000991

compound: OC[C@H]1O[C@@H](Oc2ccc(O)cc2)[C@H](O)[C@@H](O)[C@@H]1O (racemic) [Arbutin Racemic mixture, Arbutin]
unitOfMeasure: s/µg
readoutNumber: 49.4

Input: Form field: reported Result [s/μg] (BROM by Strength) of O=c1[nH]c(=O)c2[nH]c(=O)[nH]c2[nH]1 [Uric Acid, Uric acid]
Output: 9.14

Input: Form field: reported Result [s/μg] (BROM by Strength) of Oc1cccc(O)c1 [Resorcinol]
Output: 30.39

Input: Form field: reported Result [s/μg] (BROM by Strength) of COc1ccc([C@@H]2CC(=O)c3c(O)cc(O[C@@H]4O[C@H](CO[C@@H]5O[C@@H](C)[C@H](O)[C@@H](O)[C@H]5O)[C@@H](O)[C@H](O)[C@H]4O)cc3O2)cc1O [Hesperidin]
Output: 5.38

Input: Form field: reported Result [s/μg] (BROM by Strength) of OC[C@H]1O[C@@H](Oc2ccc(O)cc2)[C@H](O)[C@@H](O)[C@@H]1O [8 Arbutin]
Output: 40.53

Input: Form field: reported Result [s/μg] (BROM by Strength) of NC(=O)NC1NC(=O)NC1=O (centres unmarked) [Allantoin]
Output: 0
